# ASSAY SYSTEM: human DP2 (Homo sapiens (Human))
# Sequence (Q9Y5Y4 whole entry): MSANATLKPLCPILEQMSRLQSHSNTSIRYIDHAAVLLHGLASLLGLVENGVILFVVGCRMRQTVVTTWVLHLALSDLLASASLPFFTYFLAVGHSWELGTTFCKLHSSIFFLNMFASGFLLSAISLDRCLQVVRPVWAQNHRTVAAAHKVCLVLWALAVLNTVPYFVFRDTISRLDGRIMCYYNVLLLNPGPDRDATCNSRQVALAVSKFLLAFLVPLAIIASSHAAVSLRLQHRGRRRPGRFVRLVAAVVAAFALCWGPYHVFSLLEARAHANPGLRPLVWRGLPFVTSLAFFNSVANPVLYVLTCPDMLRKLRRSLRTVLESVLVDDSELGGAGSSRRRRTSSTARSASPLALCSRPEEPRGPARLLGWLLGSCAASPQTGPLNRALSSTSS
# TEST METHOD NOTES: DP-2 Binding Inhibition Assay (3H-PGD2 binding to membranes of K562 cells expressing DP2)
# CONDITION LABEL: read-out: EC50 (nM) 4% HSA; inhibition of 3H-PGD2 binding, 4% HSA
Lab note - cut at 200 nM for EC50: t if strictly below, f if not.

{"COMPOUND": "COc1ccccc1CCNC(=O)c1ccc(Oc2cc3c(cc2Cl)C(C(=O)O)CCO3)cc1 (stereo not shown)", "GROUP LABEL": "f"}
{"COMPOUND": "COc1cc(Cl)c(CCNC(=O)c2ccc(Oc3cc4c(cc3Cl)C(C(=O)O)CCO4)cc2)c(Cl)c1 (stereo not shown)", "GROUP LABEL": "f"}
{"COMPOUND": "CCOc1ccccc1CCNC(=O)c1ccc(Oc2cc3c(cc2Cl)C(C(=O)O)CCO3)cc1 (stereo not shown)", "GROUP LABEL": "t"}
{"COMPOUND": "O=C(NCCc1cccc(F)c1)c1ccc(Oc2cc3c(cc2Cl)C(C(=O)O)CCO3)cc1 (stereo not shown)", "GROUP LABEL": "f"}
{"COMPOUND": "N#Cc1cc2c(cc1Oc1ccc(C(=O)Nc3cccc(-c4ccccc4)c3)cc1)OCCC2C(=O)O (stereo not shown)", "GROUP LABEL": "t"}

Could you now consider this next compound?
Does the reported EC50 of the following compound sit strictly below 200 nM? O=C(NCCCCc1ccccc1Cl)c1ccc(Oc2cc3c(cc2Cl)C(C(=O)O)CCO3)cc1 (stereo not shown)
f
